Test: Selectivity index, ratio of IC50 for human MRC5 cells after 24 hrs to MIC for Enterococcus faecalis ATCC 29212
Format: toxicity, cell-based
Conditions: read-out: Selectivity Index
# maps each entry to its selectivity ratio at 24 h
// return just the number, without any unit appended

A selection of reference data follows.
- mol smiles: "N=C(N)NCCc1ccc(OCc2c(COc3ccc(CCNC(=N)N)cc3)c(COc3ccc(CCNC(=N)N)cc3)c(COc3ccc(CCNC(=N)N)cc3)c(COc3ccc(CCNC(=N)N)cc3)c2COc2ccc(CCNC(=N)N)cc2)cc1.O=C(O)C(F)(F)F"
  reported: 3
- mol smiles: "N=C(N)NCCc1ccc(OCc2cccc(COc3ccc(CCNC(=N)N)cc3)c2)cc1.O=C(O)C(F)(F)F"
  reported: 2

Then this compound:
I would be grateful if you could share the reported selectivity ratio at 24 h for N=C(N)NCCc1ccc(OCc2ccccc2)cc1.O=C(O)C(F)(F)F .
0.2

----------
Experiment: Selectivity index, ratio of IC50 for human MRC5 cells after 24 hrs to MIC for Staphylococcus aureus ATCC 25923
Assay type: toxicity, cell-based
Settings: read-out: Selectivity Index
property label: selectivity ratio at 24 h
Returns: the value as a bare number; no unit string appended.

Given the entry N=C(N)NCCc1ccc(OCc2cc(COc3ccc(CCNC(=N)N)cc3)c(COc3ccc(CCNC(=N)N)cc3)cc2COc2ccc(CCNC(=N)N)cc2)cc1.O=C(O)C(F)(F)F , report its measured selectivity ratio at 24 h.
24.5

----------
Overview of recorded selectivity ratio at 24 h for various compounds
Test: Selectivity index, ratio of IC50 for human MRC5 cells after 24 hrs to MIC for Staphylococcus aureus ATCC 29213
Format: toxicity, cell-based
Conditions: read-out: Selectivity Index
Just the number, please, no unit after it.

- mol smiles: "N=C(N)NCCc1ccc(OCc2c(COc3ccc(CCNC(=N)N)cc3)c(COc3ccc(CCNC(=N)N)cc3)c(COc3ccc(CCNC(=N)N)cc3)c(COc3ccc(CCNC(=N)N)cc3)c2COc2ccc(CCNC(=N)N)cc2)cc1.O=C(O)C(F)(F)F"
  selectivity ratio at 24 h: 3

As a next step, examine the compound that follows.
Recorded selectivity ratio at 24 h for N=C(N)NCCc1ccc(OCc2ccccc2)cc1.O=C(O)C(F)(F)F , please?
3

----------
Tested on: MRC5
Test: Cytotoxicity against human MRC5 cells after 48 hrs by MTT assay
Assay type: cell-based
Conditions: MRC5, 48 h
property label: IC50 (µg/mL)
Express the result in µg/mL but write the number alone.

- mol smiles: "N=C(N)NCCc1ccc(OCc2cccc(COc3ccc(CCNC(=N)N)cc3)c2)cc1.O=C(O)C(F)(F)F"
  unit abbrev: "µg/mL"
  IC50: 29.7
- mol smiles: "N=C(N)NCCc1ccc(OCc2cc(COc3ccc(CCNC(=N)N)cc3)cc(COc3ccc(CCNC(=N)N)cc3)c2)cc1.O=C(O)C(F)(F)F"
  unit abbrev: "µg/mL"
  IC50: 30
- mol smiles: "N=C(N)NCCc1ccc(OCc2ccc(COc3ccc(CCNC(=N)N)cc3)cc2)cc1.O=C(O)C(F)(F)F"
  unit abbrev: "µg/mL"
  IC50: 12.7

Consider now this further molecule.
Fill in the blank: the reported IC50 of N=C(N)NCCc1ccc(OCc2ccccc2)cc1.O=C(O)C(F)(F)F is ____.
19

----------
System: MRC5
Test: Cytotoxicity against human MRC5 cells after 48 hrs by MTT assay
Format: cell-based
Conditions: MRC5, 48 h
property label: IC50 (µg/mL)
Please give a number only; it is taken to be in µg/mL.

Could you share what IC50 was measured for N=C(N)NCCc1ccc(OCc2c(COc3ccc(CCNC(=N)N)cc3)c(COc3ccc(CCNC(=N)N)cc3)c(COc3ccc(CCNC(=N)N)cc3)c(COc3ccc(CCNC(=N)N)cc3)c2COc2ccc(CCNC(=N)N)cc2)cc1.O=C(O)C(F)(F)F , tested on MRC5?
30

Lab request: please report IC50 under test system MRC5 for N=C(N)NCCc1ccc(OCc2ccccc2COc2ccc(CCNC(=N)N)cc2)cc1.O=C(O)C(F)(F)F
41

// fetch MRC5 IC50 for N=C(N)NCCc1ccc(OCc2cc(COc3ccc(CCNC(=N)N)cc3)c(COc3ccc(CCNC(=N)N)cc3)cc2COc2ccc(CCNC(=N)N)cc2)cc1.O=C(O)C(F)(F)F
38.5
